Consider the following compounds; for each one, report its IC50.
SYSTEM: Phosphatidylinositol 4,5-bisphosphate 3-kinase catalytic subunit gamma isoform (Homo sapiens)
Sequence (P48736 whole entry, canonical isoform): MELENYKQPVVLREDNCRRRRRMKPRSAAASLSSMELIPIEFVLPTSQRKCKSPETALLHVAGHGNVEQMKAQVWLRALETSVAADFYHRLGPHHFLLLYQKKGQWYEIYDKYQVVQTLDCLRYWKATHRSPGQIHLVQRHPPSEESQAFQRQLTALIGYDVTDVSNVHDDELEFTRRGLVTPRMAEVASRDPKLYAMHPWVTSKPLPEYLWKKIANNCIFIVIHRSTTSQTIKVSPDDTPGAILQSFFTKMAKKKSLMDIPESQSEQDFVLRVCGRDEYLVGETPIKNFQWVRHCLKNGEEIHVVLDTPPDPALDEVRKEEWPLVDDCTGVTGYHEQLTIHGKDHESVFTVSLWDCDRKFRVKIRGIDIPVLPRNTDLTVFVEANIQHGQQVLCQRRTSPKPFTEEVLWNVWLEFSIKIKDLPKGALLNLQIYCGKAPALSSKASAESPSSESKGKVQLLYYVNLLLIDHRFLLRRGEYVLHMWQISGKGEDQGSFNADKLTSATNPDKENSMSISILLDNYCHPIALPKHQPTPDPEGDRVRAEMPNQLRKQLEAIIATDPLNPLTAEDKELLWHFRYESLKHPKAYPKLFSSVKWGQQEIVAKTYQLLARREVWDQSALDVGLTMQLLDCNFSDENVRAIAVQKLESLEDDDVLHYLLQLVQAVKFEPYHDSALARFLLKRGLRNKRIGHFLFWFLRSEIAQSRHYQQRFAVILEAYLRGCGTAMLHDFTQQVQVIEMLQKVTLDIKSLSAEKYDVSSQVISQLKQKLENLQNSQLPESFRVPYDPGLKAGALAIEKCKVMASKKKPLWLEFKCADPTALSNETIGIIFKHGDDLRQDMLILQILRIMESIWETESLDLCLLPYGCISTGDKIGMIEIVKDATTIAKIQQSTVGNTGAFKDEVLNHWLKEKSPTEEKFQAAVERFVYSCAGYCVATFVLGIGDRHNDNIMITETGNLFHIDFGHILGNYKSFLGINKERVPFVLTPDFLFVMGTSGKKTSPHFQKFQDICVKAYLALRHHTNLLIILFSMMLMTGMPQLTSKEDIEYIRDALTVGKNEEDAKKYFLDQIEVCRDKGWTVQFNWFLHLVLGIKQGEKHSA
RUN_DESCRIPTION: Inhibition of recombinant human C-terminal His6-tagged p110gamma expressed in insect cells using phosphatidylinositol as substrate in presence of gamma-32P-ATP after 5 mins by thin layer chromatographic method

q: IC50 for Cc1cccc2cc([C@H](C)Nc3ncnc4[nH]cc(C#N)c34)n(-c3ccccc3)c(=O)c12 ?
a: < 100 nM

q: Any idea what its IC50 is? The compound is CC(=O)Nc1nc2cc(-c3nn(Cc4cc5cccc(C)c5c(=O)n4-c4ccccc4C)c4ncnc(N)c34)ccc2o1
a: < 100 nM

q: Dear colleague, I am looking for the recorded IC50 of the following compound: Cc1ccccc1-n1c(Cn2nc(C#C[C@@H](C)O)c3c(N)ncnc32)cc2cccc(F)c2c1=O
a: > 10000 nM

q: What value of measured IC50 is listed for Cc1cccc2cc([C@H](C)Nc3ncnc4[nH]ccc34)n(C3CC3)c(=O)c12 ?
a: < 100 nM

q: What IC50 value was documented for this compound, Cc1ccccc1-n1c(Cn2nc(C#N)c3c(N)ncnc32)cc2cccc(C)c2c1=O ?
a: < 10000 nM
